- Tested on: Aspergillus niger
- methodSummary: Minimum inhibitory concentration, YAG medium
- Type: cell-based
- conditionDetails: banded MIC grade
propertyName: MIC grade, A. NIGER, YAG media

> print(dat)
                         querysmiles                    propertyname             result
1                NC1=NNC2=C(CCCC2)S1  MIC grade, A. NIGER, YAG media    2 (2: 1-5 mg/L)
2    CCc1ccc(OCCCCCC2=NN=C(N)SC2)cc1  MIC grade, A. NIGER, YAG media   4 (4: <0.2 mg/L)
3      NC1=NN=C(CC(=O)OCc2ccccc2)CS1  MIC grade, A. NIGER, YAG media    2 (2: 1-5 mg/L)
4  CCCCc1ccc(COCCCCC2=NN=C(N)SC2)cc1  MIC grade, A. NIGER, YAG media  3 (3: 0.2-1 mg/L)
5    CCCCc1ccc(COCCC2=NN=C(N)SC2)cc1  MIC grade, A. NIGER, YAG media  3 (3: 0.2-1 mg/L)
6  NC1=NN=C(CCCCOCc2cc(F)cc(F)c2)CS1  MIC grade, A. NIGER, YAG media   4 (4: <0.2 mg/L)
7    COc1ccc(CCCOCCC2=NN=C(N)SC2)cc1  MIC grade, A. NIGER, YAG media    2 (2: 1-5 mg/L)
8  CCCCc1cccc(COCCCCC2=NN=C(N)SC2)c1  MIC grade, A. NIGER, YAG media  3 (3: 0.2-1 mg/L)

Record `COCCCCCC1=CSC(=N)NN1C` / Aspergillus niger, MIC grade, A. NIGER, YAG media recorded as 3 (3: 0.2-1 mg/L)

Record `NC1=NN=C(CCCCOCc2ccc(F)cc2F)CS1` / Aspergillus niger, MIC grade, A. NIGER, YAG media recorded as 4 (4: <0.2 mg/L)

Record `NC1=NN=C(CCOc2ccc(-c3ccccc3)cc2)CS1` / Aspergillus niger, MIC grade, A. NIGER, YAG media recorded as 2 (2: 1-5 mg/L)

Record `CCOC(=O)c1ccc(C2=CSC(N)=NN2)cc1` / Aspergillus niger, MIC grade, A. NIGER, YAG media recorded as 4 (4: <0.2 mg/L)

Record `Cc1ccc(OCCC2=NN=C(N)SC2)cc1` / Aspergillus niger, MIC grade, A. NIGER, YAG media recorded as 3 (3: 0.2-1 mg/L)

---

MIC grade, C. KRUSEI, RPMI media: recorded values
- Tested on: C. krusei
- methodSummary: Minimum inhibitory concentration, RPMI medium
- Format: cell-based
- conditionDetails: banded MIC grade
- Method: The compound was dissolved in DMSO to give a solution containing 5 mg/mL. Tubes were stored at −20° C. until required. On the day of testing thawed solutions were vortex mixed to ensure homogeneity. 30 μL of solution was removed and added to 570 μL of sterile water in a separate sterile Eppendorf. The thoroughly mixed solution was used to prepare a series of doubling dilutions in water, in a deep well plate. […] Growth was assessed by monitoring the optical density at 485 nm for each well. […]

> print(dat)
                         querysmiles          result
1  NC1=NN=C(CCCCOCCCc2ccc(F)cc2F)CS1  4 (4: <1 mg/L)

Read the next record carefully.
// sample `NC1=NN=C(CCCCOCc2ccc(Cl)cc2F)CS1` , its MIC grade, C. KRUSEI, RPMI media was 4 (4: <1 mg/L)

---

MIC grade, A. FLAVUS, YAG media: recorded values
- Test system: Aspergillus flavus
- methodSummary: Minimum inhibitory concentration, YAG medium
- Format: cell-based
- conditionDetails: banded MIC grade

// known answers, use as guide
> print(dat)
                            compound             result
1  NC1=NN=C(CCCCOCc2ccc(Cl)cc2Cl)CS1    2 (2: 1-5 mg/L)
2         CCOC(=O)CCCCCC1=NN=C(N)SC1   4 (4: <0.2 mg/L)
3              CC(C)OCCC1=NN=C(N)SC1     1 (1: ≥5 mg/L)
4      NC1=NN=C(CCCCCCCOc2ccccc2)CS1   4 (4: <0.2 mg/L)
5      COc1ccc(COCCC2=NN=C(N)SC2)cc1  3 (3: 0.2-1 mg/L)
6     CN(CCCCCC1=NN=C(N)SC1)c1ccccc1  3 (3: 0.2-1 mg/L)

// sample `N#Cc1ccc(COCCC2=NN=C(N)SC2)cc1` , its MIC grade, A. FLAVUS, YAG media was 3 (3: 0.2-1 mg/L)

// sample `NC1=NN=C(c2ccc3ccccc3c2)CS1` , its MIC grade, A. FLAVUS, YAG media was 1 (1: ≥5 mg/L)

// sample `COc1cccc(C2=NN=C(N)SC2)c1` , its MIC grade, A. FLAVUS, YAG media was 1 (1: ≥5 mg/L)

// sample `NC1=NN=C(CCCCOCc2c(F)cccc2Cl)CS1` , its MIC grade, A. FLAVUS, YAG media was 3 (3: 0.2-1 mg/L)

// sample NC1=NN=C(c2ccccc2)CS1 [5-phenyl-6~{H}-1,3,4-thiadiazin-2-amine] , its MIC grade, A. FLAVUS, YAG media was 3 (3: 0.2-1 mg/L)

// sample `NC1=NN=C(CCCCOCc2ccccc2C2CC2)CS1` , its MIC grade, A. FLAVUS, YAG media was 3 (3: 0.2-1 mg/L)

// sample `NC1=NN=C(CCCCOCc2ccc(F)cc2)CS1` , its MIC grade, A. FLAVUS, YAG media was 2 (2: 1-5 mg/L)

---

- System: Aspergillus niger
- methodSummary: Minimum inhibitory concentration, YAG medium
- Format: cell-based
- conditionDetails: banded MIC grade
MIC grade, A. NIGER, YAG media: recorded values

// known answers, use as guide
> print(dat)
                                compound            result
1                  COCCCCCCC1=NN=C(N)SC1  4 (4: <0.2 mg/L)
2       NC1=NN=C(CCCCOCc2ccccc2C2CC2)CS1   2 (2: 1-5 mg/L)
3             NC1=NN=C(CCCCCc2ccccn2)CS1  4 (4: <0.2 mg/L)
4  NC1=NN=C(CCCCOCc2ccc(C(F)(F)F)cc2)CS1  4 (4: <0.2 mg/L)

// sample `NC1=NN=C(c2ccccn2)CS1` , its MIC grade, A. NIGER, YAG media was 2 (2: 1-5 mg/L)

// sample `NC1=NN=C(CCCCOCc2cccc(C3CC3)c2)CS1` , its MIC grade, A. NIGER, YAG media was 3 (3: 0.2-1 mg/L)

// sample `NC1=NN=C(CCCOc2ccccc2)CS1` , its MIC grade, A. NIGER, YAG media was 4 (4: <0.2 mg/L)

// sample NC1=NN=C(c2ccccc2)CS1 [5-phenyl-6~{H}-1,3,4-thiadiazin-2-amine] , its MIC grade, A. NIGER, YAG media was 3 (3: 0.2-1 mg/L)

// sample `NC1=NN=C(CCCCCN2C(=O)c3ccccc3C2=O)CS1` , its MIC grade, A. NIGER, YAG media was 4 (4: <0.2 mg/L)

// sample `N#Cc1ccc(C2=NN=C(N)SC2)cc1` , its MIC grade, A. NIGER, YAG media was 2 (2: 1-5 mg/L)

// sample `CCOC(=O)CC1=NN=C(N)SC1` , its MIC grade, A. NIGER, YAG media was 3 (3: 0.2-1 mg/L)

// sample `NC1=NN=C(CCOCCOc2ccccc2)CS1` , its MIC grade, A. NIGER, YAG media was 4 (4: <0.2 mg/L)

---

- Test system: C. albicans
- methodSummary: Minimum inhibitory concentration, RPMI medium
- Format: cell-based
- conditionDetails: banded MIC grade
propertyName: MIC grade, C. ALBICANS, RPMI media

// known answers, use as guide
> print(dat)
                           querysmiles                        propertyname            result
1      NC1=NN=C(CCCCOCc2cccc(Cl)c2)CS1  MIC grade, C. ALBICANS, RPMI media    4 (4: <1 mg/L)
2        CCCOc1ccc(CCC2=NN=C(N)SC2)cc1  MIC grade, C. ALBICANS, RPMI media    4 (4: <1 mg/L)
3         CC(C)c1ccc(C2=NN=C(N)SC2)cc1  MIC grade, C. ALBICANS, RPMI media   1 (1: ≥20 mg/L)
4    NC1=NN=C(CCCCOCc2ccc(Cl)cc2Cl)CS1  MIC grade, C. ALBICANS, RPMI media  2 (2: 5-20 mg/L)
5  NC1=NN=C(CCCCOCc2ccccc2C(F)(F)F)CS1  MIC grade, C. ALBICANS, RPMI media  2 (2: 5-20 mg/L)
6               CCC(=O)OCC1=NN=C(N)SC1  MIC grade, C. ALBICANS, RPMI media   1 (1: ≥20 mg/L)

Read the next record carefully.
// sample `CCCCCCOCCC1=NN=C(N)SC1` , its MIC grade, C. ALBICANS, RPMI media was 4 (4: <1 mg/L)

The measurements presented in this section are drawn from patent US20180201592A1.
